Test system: SK-MEL-5
assay.procedure: Cytotoxicity against human SK-MEL-5 cells assessed as cell growth at 10 uM after 48 hrs relative to control
Type: functional
study.conditions: SK-MEL-5, 48 h, read-out: Activity
# growth at 10 µM listing for each entry below
Report the value in % with no unit label.

Worked examples follow.
# smiles.structure, observed.value
measured = [
    ("COC(=O)[C@@H](NC(=O)N[C@@H](Cc1ccccc1)C(=O)N[C@H]1CCCCNC(=O)/C=C/[C@H](Cc2c[nH]c3ccccc23)NC1=O)C(C)C", 63.9),
    ("COC(=O)[C@@H](NC(=O)N[C@@H](Cc1ccccc1)C(=O)N[C@H]1CCCCNC(=O)/C=C/[C@H](Cc2ccccc2)NC1=O)C(C)C", 18.6),
    ("COC(=O)[C@@H](NC(=O)N[C@@H](Cc1ccccc1)C(=O)N[C@H]1CCCCNC(=O)/C=C/[C@H](C(C)C)NC1=O)C(C)C", 34),
]

Challenge: Please report growth at 10 µM for the following compound: `COC(=O)[C@@H](NC(=O)N[C@H](C(=O)N[C@H]1CCCCNC(=O)/C=C/[C@H](C(C)C)NC1=O)C(C)C)C(C)C`
Response given: -4.25

Challenge: Determine its reported growth at 10 µM: `COC(=O)[C@@H](NC(=O)N[C@H](C(=O)N[C@H]1CCCCNC(=O)/C=C/[C@H](Cc2c[nH]c3ccccc23)NC1=O)C(C)C)C(C)C`
Response given: 60.6

###

Documented growth at 10 µM across a set of compounds
System: SN12C
assay.procedure: Cytotoxicity against human SN12C cells assessed as cell growth at 10 uM after 48 hrs relative to control
Type: functional
study.conditions: read-out: Activity
Remember to quote the unit after the number.

In the examples that follow, each entry is paired with its recorded growth at 10 µM.
# smiles.structure, growth at 10 µM
data = [
    ("COC(=O)[C@@H](NC(=O)N[C@H](C(=O)N[C@H]1CCCCNC(=O)/C=C/[C@H](Cc2c[nH]c3ccccc23)NC1=O)C(C)C)C(C)C", "2.96%"),
    ("COC(=O)[C@@H](NC(=O)N[C@H](C(=O)N[C@H]1CCCCNC(=O)/C=C/[C@H](C(C)C)NC1=O)C(C)C)C(C)C", "15.8%"),
    ("COC(=O)[C@@H](NC(=O)N[C@@H](Cc1ccccc1)C(=O)N[C@H]1CCCCNC(=O)/C=C/[C@H](Cc2ccccc2)NC1=O)C(C)C", "29.5%"),
    ("COC(=O)[C@@H](NC(=O)N[C@@H](Cc1ccccc1)C(=O)N[C@H]1CCCCNC(=O)/C=C/[C@H](Cc2c[nH]c3ccccc23)NC1=O)C(C)C", "80.1%"),
]

Let's switch to this compound now.
Challenge: Hello, please tell me recorded growth at 10 µM for this one: `COC(=O)[C@@H](NC(=O)N[C@@H](Cc1ccccc1)C(=O)N[C@H]1CCCCNC(=O)/C=C/[C@H](C(C)C)NC1=O)C(C)C`
Response given: 75.6%

###

target.system: Proteasome Macropain subunit MB1 (Homo sapiens, UniProt P28074)
Sequence (P28074 whole entry): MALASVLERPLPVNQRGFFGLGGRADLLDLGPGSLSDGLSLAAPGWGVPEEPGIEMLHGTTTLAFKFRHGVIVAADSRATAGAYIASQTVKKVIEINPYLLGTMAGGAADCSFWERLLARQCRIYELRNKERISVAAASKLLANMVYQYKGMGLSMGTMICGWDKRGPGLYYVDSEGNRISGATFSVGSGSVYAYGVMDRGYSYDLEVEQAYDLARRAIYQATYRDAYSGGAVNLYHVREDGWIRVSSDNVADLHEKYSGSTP
assay.procedure: Inhibition of human 20S proteasome beta5 subunit using Suc-LLVY-AMC as substrate by fluorescence assay
readout.label: Ki (nM)
Answer in nM, number only, no unit symbol.

Worked examples, 3 compounds total:
# smiles.structure, units.label, observed.value
data = [
    ("COC(=O)[C@@H](NC(=O)N[C@H](C(=O)N[C@H]1CCCCNC(=O)/C=C/[C@H](Cc2cc(F)cc(F)c2)NC1=O)C(C)C)C(C)C", "nM", 952),
    ("COC(=O)[C@@H](NC(=O)N[C@H](C(=O)N[C@H]1CCCCNC(=O)/C=C/[C@H](Cc2ccccc2F)NC1=O)C(C)C)C(C)C", "nM", 906),
    ("COC(=O)[C@@H](NC(=O)N[C@H](C(=O)N[C@H]1CCCCNC(=O)/C=C/[C@H](Cc2ccccc2)NC1=O)C(C)C)C(C)C", "nM", 743),
]

Here is the next item to consider.
Challenge: Given the compound `COC(=O)[C@@H](NC(=O)N[C@@H](Cc1ccccc1)C(=O)N[C@H]1CCCCNC(=O)/C=C/[C@H](C(C)C)NC1=O)C(C)C` , write its reported Ki.
Response given: 950
